Collected IC50 for Caspase-3 (Homo sapiens, UniProt P42574) across several studies; compounds listed below.

Completed entries (count: 5):
[
  {
    "compound": "COc1ccccc1CCC(=O)N1CCC(O)(Cn2cnc3ccccc3c2=O)CC1",
    "IC50": "> 200 µM"
  },
  {
    "compound": "C[C@H](NC(=O)C(=O)Nc1c(F)cccc1F)C(=O)N[C@@H](CCO)C(=O)COc1c(F)c(F)cc(F)c1F",
    "IC50": "≥ 1 µM"
  },
  {
    "compound": "C[C@H](NC(=O)C(=O)Nc1c(F)cccc1F)C(=O)N[C@@H](CCC(=O)O)C(=O)COc1cc(C(F)(F)F)nc(C(F)(F)F)n1",
    "IC50": "≥ 1 µM"
  },
  {
    "compound": "O=C(c1ccc2c(Cl)c3c(nc2c1)CCCC3)N1CCCCCC1",
    "IC50": "> 200 µM"
  },
  {
    "compound": "O=C(O)CC[C@H](NC(=O)CNC(=O)C(=O)Nc1c(F)cccc1F)C(=O)COc1c(F)c(F)cc(F)c1F",
    "IC50": "≥ 1 µM"
  }
]

Caspase-3 (Homo sapiens, UniProt P42574) assay, compound C[C@H](NC(=O)C(=O)Nc1ccc(Cl)cn1)C(=O)N[C@@H](CCC(=O)O)C(=O)COc1c(F)c(F)cc(F)c1F , recorded IC50 = ≥ 1 µM

Caspase-3 (Homo sapiens, UniProt P42574) assay, compound COCc1nnc2nc3c(nn12)-c1ccccc1C3=O , recorded IC50 = 0.556 µM

Caspase-3 (Homo sapiens, UniProt P42574) assay, compound C[C@H](NC(=O)c1cc(-c2ccc(Cl)cc2)on1)C(=O)N[C@@H](CC(=O)O)C(=O)COc1c(F)c(F)cc(F)c1F , recorded IC50 = 0.0245 µM

Caspase-3 (Homo sapiens, UniProt P42574) assay, compound CCC(CC)C(=O)N1CCC(O)(Cn2cnc3cc(Cl)ccc3c2=O)CC1 , recorded IC50 = > 200 µM

Caspase-3 (Homo sapiens, UniProt P42574) assay, compound O=C(Nc1cccc(CN2CCCC2)c1)c1ccc2c(Cl)c3c(nc2c1)CCCC3 , recorded IC50 = > 200 µM

Caspase-3 (Homo sapiens, UniProt P42574) assay, compound C[C@H](NC(=O)C(=O)Nc1c(F)cccc1F)C(=O)N[C@@H](CCC(=O)O)C(=O)COc1cc(C(F)(F)F)cc(C(F)(F)F)c1 , recorded IC50 = ≥ 1 µM

Caspase-3 (Homo sapiens, UniProt P42574) assay, compound O=C1c2ccccc2-c2nc3nnc(CO)n3nc21 , recorded IC50 = 3.9 µM

Caspase-3 (Homo sapiens, UniProt P42574) assay, compound C[C@H](NC(=O)C(=O)Nc1ccc(F)cc1)C(=O)N[C@@H](CCC(=O)O)C(=O)COc1c(F)c(F)cc(F)c1F , recorded IC50 = ≥ 1 µM

Caspase-3 (Homo sapiens, UniProt P42574) assay, compound Nc1nnc2nc3c(nn12)C(=O)c1ccccc1-3 , recorded IC50 = 3.7 µM

Caspase-3 (Homo sapiens, UniProt P42574) assay, compound O=C(NCCCN1CCCC1)c1ccc2c(Cl)c3c(nc2c1)CCCC3 , recorded IC50 = > 200 µM

Caspase-3 (Homo sapiens, UniProt P42574) assay, compound O=C1c2ccccc2-c2nn3c(Cc4ccccc4)nnc3nc21 , recorded IC50 = 0.164 µM

Caspase-3 (Homo sapiens, UniProt P42574) assay, compound Cc1nnc2nc3c(nn12)-c1ccccc1C3=O , recorded IC50 = 0.424 µM

Caspase-3 (Homo sapiens, UniProt P42574) assay, compound CN(C)c1ccc(CN2CCC(CNC(=O)c3ccc4c(Cl)c5c(nc4c3)CCCC5)CC2)cc1 , recorded IC50 = > 200 µM

Caspase-3 (Homo sapiens, UniProt P42574) assay, compound O=C(CCC1CCCC1)N1CCC(O)(Cn2cnc3ccccc3c2=O)CC1 , recorded IC50 = > 200 µM

Caspase-3 (Homo sapiens, UniProt P42574) assay, compound Cc1ccccc1NC(=O)C(=O)N[C@@H](C)C(=O)N[C@@H](CCC(=O)O)C(=O)COc1c(F)c(F)cc(F)c1F , recorded IC50 = ≥ 1 µM

Caspase-3 (Homo sapiens, UniProt P42574) assay, compound CC1CCCCN1CCCNC(=O)c1ccc2c(Cl)c3c(nc2c1)CCCC3 (centres unmarked) , recorded IC50 = > 200 µM

Caspase-3 (Homo sapiens, UniProt P42574) assay, compound C[C@H](NC(=O)C(=O)Nc1c(F)cccc1F)C(=O)N[C@@H](CCCC(=O)O)C(=O)COc1c(F)c(F)cc(F)c1F , recorded IC50 = ≥ 1 µM
